Cited source: patent US10519115B2

# SYSTEM_NAME: Human GPR40 (Homo sapiens, UniProt O14842)
# Sequence (O14842 whole entry): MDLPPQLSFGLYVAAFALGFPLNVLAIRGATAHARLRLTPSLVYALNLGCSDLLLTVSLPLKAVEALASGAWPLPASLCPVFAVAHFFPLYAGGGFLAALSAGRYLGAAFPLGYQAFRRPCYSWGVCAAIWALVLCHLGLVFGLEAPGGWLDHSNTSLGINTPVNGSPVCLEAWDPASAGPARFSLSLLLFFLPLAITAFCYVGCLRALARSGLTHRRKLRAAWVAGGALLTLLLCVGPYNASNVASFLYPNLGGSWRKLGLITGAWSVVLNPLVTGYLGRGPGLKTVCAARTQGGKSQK
# PROTOCOL_DETAILS: Inositol Phosphate Turnover Assay 1 (HEK cells stably expressing human GPR40)
# Assay type: cell-based
# Design: expressed in transfected cells; host or cells: HEK cells stably expressing the aequorin reporter
# STUDY_CONDITIONS: HEK cells stably expressing human GPR40, 96-well, 3H-inositol; read-out: Human GPR40 IP1 Assay 1, EC50
Catalogue of EC50 values
Your answer should be a plain number; it is taken to be in nM.

Cc1nc(N2Cc3cn(CC(C)(C)O)nc3C2)ccc1-c1cc(COc2cc3c(cn2)[C@H]2[C@@H](C3)[C@@H]2C(=O)O)c(F)cc1C(F)(F)F | 7.6
CS(=O)(=O)N1CCC(c2ccc(-c3cc(COc4cc5c(cn4)[C@H]4[C@@H](C5)[C@@H]4C(=O)O)c(F)cc3C(F)(F)F)cc2)CC1 | 13

Next molecule, please.
Request - read-out EC50 | tested on Human GPR40 (Homo sapiens, UniProt O14842) | molecule `C[C@]1(O)C[C@@H](COc2ccc(-c3cc(COc4cc5c(cn4)[C@H]4[C@@H](C5)[C@@H]4C(=O)O)c(F)cc3C(F)(F)F)cc2F)C1`
11
